Target: NKCC1 (Homo sapiens)
Construct: expressed in transfected cells; host or cells: HEK293
Sequence (P55011 whole entry, species assumed): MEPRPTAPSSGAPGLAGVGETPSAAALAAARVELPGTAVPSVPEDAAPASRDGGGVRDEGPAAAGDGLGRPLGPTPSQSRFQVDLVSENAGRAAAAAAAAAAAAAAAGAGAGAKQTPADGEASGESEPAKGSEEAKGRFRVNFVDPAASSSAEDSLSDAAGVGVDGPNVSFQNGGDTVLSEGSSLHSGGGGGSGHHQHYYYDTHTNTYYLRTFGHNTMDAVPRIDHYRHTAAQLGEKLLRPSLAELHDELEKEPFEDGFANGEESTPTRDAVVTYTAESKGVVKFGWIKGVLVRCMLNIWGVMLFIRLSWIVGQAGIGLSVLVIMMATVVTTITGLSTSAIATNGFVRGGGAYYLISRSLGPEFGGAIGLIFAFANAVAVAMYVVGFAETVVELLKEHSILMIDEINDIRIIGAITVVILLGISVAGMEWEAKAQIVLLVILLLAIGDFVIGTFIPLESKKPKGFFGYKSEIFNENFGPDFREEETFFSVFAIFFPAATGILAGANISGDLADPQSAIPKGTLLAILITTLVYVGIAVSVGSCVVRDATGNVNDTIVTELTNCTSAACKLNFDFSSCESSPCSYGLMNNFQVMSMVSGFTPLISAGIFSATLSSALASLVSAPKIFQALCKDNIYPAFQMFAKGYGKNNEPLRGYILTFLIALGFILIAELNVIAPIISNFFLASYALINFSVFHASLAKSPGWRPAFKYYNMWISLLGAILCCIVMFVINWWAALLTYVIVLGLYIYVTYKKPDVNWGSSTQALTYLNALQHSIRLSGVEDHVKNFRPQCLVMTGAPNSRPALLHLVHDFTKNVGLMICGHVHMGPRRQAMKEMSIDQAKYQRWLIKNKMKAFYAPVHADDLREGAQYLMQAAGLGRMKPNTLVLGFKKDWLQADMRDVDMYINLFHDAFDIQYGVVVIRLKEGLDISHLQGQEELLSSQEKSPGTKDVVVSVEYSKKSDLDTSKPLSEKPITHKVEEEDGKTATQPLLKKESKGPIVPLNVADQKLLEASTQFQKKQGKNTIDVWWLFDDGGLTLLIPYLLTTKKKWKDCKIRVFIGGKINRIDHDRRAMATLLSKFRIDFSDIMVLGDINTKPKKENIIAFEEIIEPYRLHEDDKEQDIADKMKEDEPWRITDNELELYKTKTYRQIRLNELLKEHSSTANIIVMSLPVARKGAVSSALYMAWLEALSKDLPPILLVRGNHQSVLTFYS
Assay: Chloride kinetic assay (Cl-sensitive YFP) in NKCC1-transfected HEK293 cells
Type: cell-based
Conditions: 10 μM; NKCC1-transfected HEK293; Table 1; read-out: NKCC1 Inhibition % 10 μM HEK Chloride YFP assay
Hi there, I'd appreciate the recorded inhibition at 10 µM for every entry that follows.
Provide the reading as a plain figure in %.

Sure, the documented inhibition at 10 µM for CCCCNc1ccc(C(=O)O)cc1S(=O)(=O)N(C)C [Compound 3.11] is 9

Lab note: measured inhibition at 10 µM of CCCCCCNc1ccc(C(=O)O)cc1S(=O)(=O)N(C)C [Compound 3.12] was 8

// recorded inhibition at 10 µM for COCCCCNc1ccc(C(=O)O)cc1S(=O)(=O)N(C)C [Compound 3.19] : 6

COCCNc1ccc(C(=O)O)cc1S(=O)(=O)N(C)C [Compound 3.18] has a reported inhibition at 10 µM of 13

// CN(C)S(=O)(=O)c1cc(C(=O)O)ccc1NCCCC(F)(F)F [Compound 3.15] : inhibition at 10 µM value = 11

According to the records, this molecule CCCCCCNc1ccc(C(=O)O)cc1S(N)(=O)=O [Compound 2.7, 4-(hexylamino)-3-sulfamoyl-benzoic acid] displays inhibition at 10 µM of 4

The molecule CC(C)(C)CCNc1ccc(C(=O)O)cc1S(N)(=O)=O [Compound 2.9] showed inhibition at 10 µM equal to 1

inhibition at 10 µM recorded for this molecule, CCCCCCNc1ccc([N+](=O)[O-])cc1S(N)(=O)=O [Compound 1.7] , is 25

Summary for this molecule, O=C(O)c1ccc(NCCCCCCCC(F)(F)F)c(S(=O)(=O)NC2CCCC2)c1 [Compound 3.21] : inhibition at 10 µM is 18

Recorded result, O=C(O)c1ccc(NCCCCCCCC(F)(F)F)c(S(=O)(=O)N2CCOCC2)c1 [Compound 5.7] , inhibition at 10 µM: 13

// CNS(=O)(=O)c1cc([N+](=O)[O-])ccc1NCCC(C)(C)C [Compound 1.13] : inhibition at 10 µM value = 17
